# targetSystem: T1, human SEMA4A expressed on cells (UniProt ID Q9H3S1, isoform 1) (human, UniProt Q9H3S1 33-761)
# T1 sequence: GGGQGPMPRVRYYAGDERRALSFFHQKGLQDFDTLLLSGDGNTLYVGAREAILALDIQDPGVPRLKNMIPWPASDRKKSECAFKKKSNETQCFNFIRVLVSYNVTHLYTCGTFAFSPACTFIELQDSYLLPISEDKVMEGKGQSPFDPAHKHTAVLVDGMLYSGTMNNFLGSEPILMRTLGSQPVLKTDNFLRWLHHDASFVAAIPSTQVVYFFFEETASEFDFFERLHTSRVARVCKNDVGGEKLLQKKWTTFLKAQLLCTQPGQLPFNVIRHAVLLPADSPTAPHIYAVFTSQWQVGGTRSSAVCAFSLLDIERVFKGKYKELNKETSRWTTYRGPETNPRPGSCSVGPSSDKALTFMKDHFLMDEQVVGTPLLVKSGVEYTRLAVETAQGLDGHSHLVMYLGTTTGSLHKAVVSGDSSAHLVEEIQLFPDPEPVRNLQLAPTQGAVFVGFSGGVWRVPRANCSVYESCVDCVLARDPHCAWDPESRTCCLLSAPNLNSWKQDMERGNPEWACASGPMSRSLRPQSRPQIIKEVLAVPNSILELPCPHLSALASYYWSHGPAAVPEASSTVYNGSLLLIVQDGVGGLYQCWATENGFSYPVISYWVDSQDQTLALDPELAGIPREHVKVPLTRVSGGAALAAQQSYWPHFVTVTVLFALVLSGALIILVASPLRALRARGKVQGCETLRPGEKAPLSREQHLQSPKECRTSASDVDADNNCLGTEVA
# protocolText: cell-based or functional assay
measure: Average MM1.S IC50 [pM], cell kill (pM)
Answers are plain numbers, in pM.

Study these solved cases before continuing.
{"binder": "5Hg1-5Lg2 human Alya IgG1 conjugated to McMMAF (antibody, V domains shown, McMMAF on the engineered cysteines 239iCys and S442C (EU numbering) of the heavy constant region, Antibody-drug conjugate; human IgG1 Alya constant) VH: QVQLVQSGAEVKKPGASVKVSCKASGYTFTDYWMHWVRQAPGQGLEWMGAIDTSDSYTSYNQKFKGRVTMTRDTSTSTVYMELSSLRSEDTAVYYCARDYGNFYYYAMDYWGQGTLVTVSS VL: QAVVTQEPSLTVSPGGTVTLTCRSSTGAVTTSNYANWFQQKPGQAPRTLIYGTNNRAPWTPARFSGSLLGGKAALTLLGAQPEDEAEYYCALWYSNHWVFGGGTKLTVL", "Average MM1.S IC50 [pM], cell kill [pM]": 15.8}
{"binder": "5Hg2-5Lg3 human Alya IgG1 conjugated to McMMAF (antibody, V domains shown, McMMAF on the engineered cysteines 239iCys and S442C (EU numbering) of the heavy constant region, Antibody-drug conjugate; human IgG1 Alya constant) VH: QVQLVQSGAEVKKPGASVKVSCKASGYTFTDYWMHWVRQAPGQRLEWMGAIDTSDSYTSYNQKFKGRVTITRDTSASTAYMELSSLRSEDTAVYYCARDYGNFYYYAMDYWGQGTLVTVSS VL: QTVVTQEPSFSVSPGGTVTLTCRSSTGAVTTSNYANWYQQTPGQAPRTLIYGTNNRAPGVPDRFSGSILGNKAALTITGAQADDESDYYCALWYSNHWVFGGGTKLTVL", "Average MM1.S IC50 [pM], cell kill [pM]": 102}

We next turn to a different binder, shown below.
*Q* Could you share which Average MM1.S IC50 [pM], cell kill value was measured for 5Hg2-5Lg1 human Alya IgG1 conjugated to McMMAF (antibody, V domains shown, McMMAF on the engineered cysteines 239iCys and S442C (EU numbering) of the heavy constant region, Antibody-drug conjugate; human IgG1 Alya constant) VH: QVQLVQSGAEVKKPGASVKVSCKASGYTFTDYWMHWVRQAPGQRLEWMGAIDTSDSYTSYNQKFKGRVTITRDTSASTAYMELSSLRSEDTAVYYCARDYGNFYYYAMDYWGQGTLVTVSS VL: QAVVTQEPSLTVSPGGTVTLTCRSSTGAVTTSNYANWFQQKPGQAPRTLIYGTNNRAPWTPARFSGSLLGGKAALTLSGAQPEDEAEYYCALWYSNHWVFGGGTKLTVL ?
*A* 11.8
